Target: GSK3α (GST-full length GSK3α) (Homo sapiens (Human), UniProt P49840)
Sequence (P49840 whole entry): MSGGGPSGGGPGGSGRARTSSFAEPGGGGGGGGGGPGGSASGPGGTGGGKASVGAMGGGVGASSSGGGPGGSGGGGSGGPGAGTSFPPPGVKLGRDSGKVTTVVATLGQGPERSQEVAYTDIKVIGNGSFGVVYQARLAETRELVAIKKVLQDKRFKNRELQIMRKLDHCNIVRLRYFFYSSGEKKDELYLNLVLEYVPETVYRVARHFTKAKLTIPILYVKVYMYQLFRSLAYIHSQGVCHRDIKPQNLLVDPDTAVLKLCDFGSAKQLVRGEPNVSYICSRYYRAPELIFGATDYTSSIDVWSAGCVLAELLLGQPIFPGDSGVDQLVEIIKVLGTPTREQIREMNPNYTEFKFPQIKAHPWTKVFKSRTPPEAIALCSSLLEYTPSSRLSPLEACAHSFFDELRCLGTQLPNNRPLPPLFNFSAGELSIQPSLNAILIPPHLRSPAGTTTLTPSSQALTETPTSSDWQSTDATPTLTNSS
Assay: GSK3α TR-FRET kinase assay
Format: biochemical
Details: 1 nM GSK3α, 4 μM ATP, 30 minute preincubation, Table 16; read-out: GSK3-A TR-FRET BIOCHEMICAL (TR-FRET); IC50
Measured IC50, listed per entry for reference.

{"MOLECULE": "CC[C@]1(c2cccc(-c3cnn(-c4cccnc4)c3)c2)C2=C(CC(C)(C)NC2=O)Nc2n[nH]cc21 [Compound 952024]", "IC50": "100 to 1000 nM"}
{"MOLECULE": "Cc1cccc2c1CC[C@@]21C2=C(CC(C)(C)CC2=O)Nc2n[nH]cc21 [Compound 913137]", "IC50": "> 5000 nM"}
{"MOLECULE": "CC1(C)CC(=O)C2=C(C1)Nc1n[nH]cc1C21CCN(c2ccncc2)CC1 [Compound 880765]", "IC50": "> 5000 nM"}
{"MOLECULE": "CC[C@]1(c2cccc(-c3cnn(-c4ccccc4)c3C(F)(F)F)c2)C2=C(CC(C)(C)NC2=O)Nc2n[nH]cc21 [Compound 951837]", "IC50": "100 to 1000 nM"}
{"MOLECULE": "C[C@@H]1COCC[C@]12C1=C(CC(C)(C)CC1=O)Nc1n[nH]cc12 [Compound 924310]", "IC50": "> 5000 nM"}

Recorded IC50 for CC[C@]1(c2cccc(-c3ccncc3C(F)(F)F)c2)C2=C(CC(C)(C)NC2=O)Nc2n[nH]cc21 [Compound 952025] , please?
≤ 100 nM

Same question for CC[C@]1(c2cccc(C(F)(F)F)c2)C2=C(CCN(c3ccn(C)n3)C2=O)Nc2n[nH]cc21 [Compound 949836] please.
1000 to 5000 nM

----------
Measured pIC50, listed per entry for reference.
Biological target: GSK3b (GST-full length GSK3b) (Homo sapiens (Human), UniProt P49841)
Sequence (P49841 whole entry): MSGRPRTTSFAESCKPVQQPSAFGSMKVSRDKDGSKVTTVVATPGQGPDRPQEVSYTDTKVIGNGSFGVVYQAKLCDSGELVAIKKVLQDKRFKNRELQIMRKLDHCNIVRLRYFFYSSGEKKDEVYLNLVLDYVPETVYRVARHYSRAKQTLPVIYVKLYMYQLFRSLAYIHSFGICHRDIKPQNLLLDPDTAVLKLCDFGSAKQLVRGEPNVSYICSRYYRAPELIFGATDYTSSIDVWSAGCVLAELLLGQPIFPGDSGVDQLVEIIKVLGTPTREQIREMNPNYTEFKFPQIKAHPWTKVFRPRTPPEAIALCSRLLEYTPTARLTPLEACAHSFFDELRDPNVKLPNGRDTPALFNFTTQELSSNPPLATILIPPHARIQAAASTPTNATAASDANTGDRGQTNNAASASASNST
Assay: GSK3b TR-FRET kinase assay
Assay type: biochemical
Details: 1 nM GSK3b, 2 μM ATP, 30 minute preincubation, Table 16; read-out: GSK3-B TR-FRET BIOCHEMICAL (TR-FRET)
pIC50: −log10 of the molar value.

Below are worked cases with known answers.
{"MOLECULE": "Cc1ccc(S(=O)(=O)N2CCC3(CC2)C2=C(CC(C)(C)CC2=O)Nc2n[nH]cc23)cn1", "MEASURE NAME": "pIC50", "ASSAY VALUE": "≥ 7.00"}
{"MOLECULE": "CC1(C)CC(=O)C2=C(C1)Nc1n[nH]cc1C21CCN(S(=O)(=O)c2cnc3n2CCC3)CC1", "MEASURE NAME": "pIC50", "ASSAY VALUE": "6.00 to 7.00"}
{"MOLECULE": "C[C@@H]1CC[C@]2(C1)C1=C(CC(C)(C)CC1=O)Nc1n[nH]cc12", "MEASURE NAME": "pIC50", "ASSAY VALUE": "≥ 7.00"}
{"MOLECULE": "CCC1(c2cccc(CS(C)(=O)=O)c2)C2=C(CC(C)(C)CC2=O)Nc2n[nH]cc21 (stereo not shown)", "MEASURE NAME": "pIC50", "ASSAY VALUE": "6.00 to 7.00"}
{"MOLECULE": "CC1(C)CC(=O)C2=C(C1)Nc1n[nH]cc1C21CN(S(=O)(=O)c2ccccc2)C1", "MEASURE NAME": "pIC50", "ASSAY VALUE": "≥ 7.00"}

Recorded pIC50 for `CC1(C)CC(=O)C2=C(C1)Nc1n[nH]cc1[C@@]21CCCc2c(-c3ccncc3)cccc21` , please?
< 5.30

Same question for `CC[C@]1(c2cccc(N(C)c3nccc(C)n3)c2)C2=C(CC(C)(C)CC2=O)Nc2n[nH]cc21` please.
5.30 to 6.00

----------
Molecular target: GSK3b (GST-full length GSK3b) (Homo sapiens (Human))
Experiment: GSK3b TR-FRET kinase assay
Assay type: biochemical
Settings: 1 nM GSK3b, 2 μM ATP, 30 minute preincubation; geometric mean; read-out: GSK3-B TR-FRET BIOCHEMICAL (TR-FRET); GMean; IC50
pIC50: −log10 of the molar value.
MEASURE NAME: pIC50

Below are worked cases with known answers.
{"COMPOUND": "C[C@@H]1CC(=O)C2=C(C1)Nc1n[nH]cc1[C@@]2(C)c1ccccc1", "STUDY TARGET": "GSK3b (GST-full length GSK3b) (Homo sapiens (Human))", "ASSAY VALUE": "< 5.30"}
{"COMPOUND": "CCC1(c2cccc(-n3ccnc3)c2)C2=C(CC(C)(C)CC2=O)Nc2n[nH]cc21 (stereo not drawn) [Compound 874533]", "STUDY TARGET": "GSK3b (GST-full length GSK3b) (Homo sapiens (Human))", "ASSAY VALUE": "< 5.30"}

Attention now turns to another entry.
Recorded pIC50 for CCC1(c2cccc(CN(C)C(=O)COC)c2)C2=C(CC(C)(C)CC2=O)Nc2n[nH]cc21 (stereo not drawn) , please?
< 5.30

----------
Target: GSK3b (GST-full length GSK3b) (Homo sapiens (Human), UniProt P49841)
Assay: GSK3b TR-FRET kinase assay
Type: biochemical
Details: 1 nM GSK3b, 2 μM ATP, 30 minute preincubation, Table 16; read-out: GSK3-B TR-FRET BIOCHEMICAL (TR-FRET); IC50
MEASURE NAME: IC50

Below are worked cases with known answers.
{"COMPOUND": "CCN(c1cccnc1)c1cccc(C2(CC)C3=C(CC(C)(C)CC3=O)Nc3n[nH]cc32)c1 (stereo not drawn) [Compound 885331]", "IC50": "≤ 100 nM"}
{"COMPOUND": "CC[C@]1(c2cccc(-c3cn(C)nc3C)c2)C2=C(CC(C)(C)CC2=O)Nc2n[nH]c(C)c21", "IC50": "≤ 100 nM"}

Please provide the recorded IC50 for `Cn1cc([C@H]2CC[C@]3(CC2)C2=C(CC(C)(C)CC2=O)Nc2n[nH]cc23)cn1` , tested on GSK3b (GST-full length GSK3b) (Homo sapiens (Human), UniProt P49841).
> 5000 nM

Same question for `CC[C@]1(c2ccccc2)C2=C(Nc3n[nH]cc31)[C@@H](C)C[C@@H](C)C2=O` please.
1000 to 5000 nM

Same question for CCC1(c2cccc(-c3c(C)cnc4ccccc34)c2)C2=C(CC(C)(C)NC2=O)Nc2n[nH]cc21 (stereo not drawn) [Compound 949398] please.
100 to 1000 nM

Same question for CCC1(c2cccc(N3CCCCC3)c2)C2=C(CC(C)(C)CC2=O)Nc2n[nH]c(C)c21 (stereo not drawn) please.
100 to 1000 nM

Same question for `CC[C@]1(c2cccc(N(C)c3ccnc(F)c3)c2)C2=C(CC(C)(C)CC2=O)Nc2n[nH]cc21` please.
> 5000 nM

Same question for `CC[C@@]1(c2cccc(S(=O)(=O)CC3CC3)c2)C2=C(CC(C)(C)CC2=O)Nc2n[nH]cc21` please.
> 5000 nM

Same question for `CC[C@]1(c2cccc(C(F)(F)F)c2)C2=C(CCN(c3cscn3)C2=O)Nc2n[nH]cc21` please.
> 5000 nM

Same question for CCC1(c2cccc(-c3ccnc4c3CCC4)c2)C2=C(CC(C)(C)C2=O)Nc2n[nH]cc21 (stereo not drawn) please.
100 to 1000 nM

Same question for CCC1(c2cccc(C(F)(F)F)c2)C2=C(CCC2=O)Nc2n[nH]cc21 (stereo not drawn) please.
100 to 1000 nM

Same question for `CC[C@]1(c2cccc(C(F)(F)F)c2)C2=C(CCN(CCOC)C2=O)Nc2n[nH]cc21` please.
> 5000 nM

Same question for `CC1(C)CC(=O)C2=C(C1)Nc1n[nH]cc1C21CN(c2ccccn2)C1` please.
1000 to 5000 nM

Same question for `CC1(C)CC(=O)C2=C(C1)Nc1n[nH]cc1C21CN(S(=O)(=O)c2cccnc2)C1` please.
> 5000 nM

Same question for CCC1(c2cccc(-c3cn(C)nc3C)c2)C2=C(CC(C)(C)C2=O)Nc2n[nH]cc21 (stereo not drawn) please.
100 to 1000 nM

----------
Measured IC50, listed per entry for reference.
Molecular target: UniProtKB P49840
Test: GSK3α TR-FRET kinase assay
Assay type: biochemical
Details: 1 nM GSK3α, 4 μM ATP, 30 minute preincubation, Table 16; read-out: GSK3-A TR-FRET BIOCHEMICAL (TR-FRET); IC50

{"MOLECULE": "CCC1(c2cccc(N3CCCc4ncccc43)c2)C2=C(CC(C)(C)CC2=O)Nc2n[nH]cc21 (stereo not drawn) [Compound 917076]", "ASSAY VALUE": "≤ 100 nM"}
{"MOLECULE": "CCC1(c2cccc(-c3cncn3C)c2)C2=C(CC(C)(C)CC2=O)Nc2n[nH]c(C)c21 (stereo not drawn) [Compound 884001]", "ASSAY VALUE": "≤ 100 nM"}
{"MOLECULE": "CCC1(c2cccc(S(=O)(=O)C(C)C)c2)C2=C(CC(C)(C)CC2=O)Nc2n[nH]cc21 (stereo not drawn) [Compound 913134]", "ASSAY VALUE": "100 to 1000 nM"}
{"MOLECULE": "CC(C)[C@@H]1C[C@@]2(CCO1)C1=C(CC(C)(C)CC1=O)Nc1n[nH]cc12 [Compound 884013]", "ASSAY VALUE": "1000 to 5000 nM"}
{"MOLECULE": "CCC1(c2cccc(-c3cc(C)nnc3C)c2)C2=C(CC(C)(C)NC2=O)Nc2n[nH]c(C(F)(F)F)c21 (stereo not drawn) [Compound 949910]", "ASSAY VALUE": "≤ 100 nM"}

Recorded IC50 for CC[C@@]1(c2cccc(-c3ccnnc3)c2)C2=C(CC(C)(C)CC2=O)Nc2n[nH]cc21 [Compound 929443] , please?
> 5000 nM

Same question for CC1(C)CC(=O)C2=C(C1)Nc1n[nH]cc1[C@@]21CCO[C@@H](C(F)(F)F)C1 [Compound 884024] please.
1000 to 5000 nM

Same question for CC[C@]1(c2cccc(-c3ccncc3F)c2)C2=C(CC(C)(C)NC2=O)Nc2n[nH]c(C(F)F)c21 [Compound 951612] please.
≤ 100 nM

Same question for CC1(C)CC(=O)C2=C(C1)Nc1n[nH]cc1[C@@]21CCOC1 [Compound 877314] please.
100 to 1000 nM
